Values were extracted from paper PMC11187106.

Here, each record is paired with measured Kd data.
measuredTarget: CtBP1(WT, FL) (human, UniProt Q13363 1-440)
procedureText: ITC; VP-ITC, 25 °C, 50 mM HEPES (pH 7.2), 150 mM NaCl; CtBP1 in the cell (20 µM for WT RAI2, 10 µM for M1 or M2), RAI2(303-362) variants 100 µM in the syringe; mean of three independent measurements
conditionDetails: both partners purified
Hi! Could you send only the number? It should be in µM, unit omitted.

Example binders with recorded Kd:
{"columns": ["binder", "unitOfMeasurement", "reportedValue"],
 "data": [
  ["RAI2(WT, 303-362) (domain or fragment, Cloned in pETGB1a with a TEV site; also called Retinoic Acid-Induced 2; source: E. coli BL21 DE3 LOBSTR, purified (HisTrap, TEV cleavage, Superdex 75); not shown: His6, N-terminal, cleaved) SRHTVIKMGSENEALDLSMKSVPWLKAGEVSPPIFQEDAALDLSVAAHRKSEPPPETLYD", "µM", 1.09],
  ["RAI2(M1, 303-362) (domain or fragment, source: E. coli BL21 DE3 LOBSTR, purified (HisTrap, TEV cleavage, Superdex 75); not shown: His6, N-terminal, cleaved) SRHTVIKMGSENEALDAAMKSVPWLKAGEVSPPIFQEDAALDLSVAAHRKSEPPPETLYD", "µM", 5.53]
]}

Okay, now this binder:
Q. Dear colleague, I am looking for the recorded Kd of the following binder: RAI2(M2, 303-362) (domain or fragment, source: E. coli BL21 DE3 LOBSTR, purified (HisTrap, TEV cleavage, Superdex 75); not shown: His6, N-terminal, cleaved) SRHTVIKMGSENEALDLSMKSVPWLKAGEVSPPIFQEDAALDAAVAAHRKSEPPPETLYD
A. 3.87
